Tested on: UO-31 renal
method: NCI tumour cell line growth inhibition, 48 h

{"compound": "C=C(CC[C@@H](C(=O)O)[C@H]1[C@H](O)C[C@@]2(C)C3=CC[C@@H](C(=C)C)[C@](C)(CCC(=O)O)C3=CC[C@]12C)C(C)C", "units-symbol": "µM", "value-comparator": "=", "TGI": 31.5}
{"compound": "CN(C)Cc1cc(O)c(O)c(CN(C)C)c1", "units-symbol": "µM", "value-comparator": ">", "TGI": 100}
{"compound": "O=c1[nH]c(=O)n(Cc2ccccc2CO)cc1Sc1ccccc1", "units-symbol": "µM", "value-comparator": "=", "TGI": 22.9}
{"compound": "COc1cccc(/C=C/c2cnc3ccccc3n2)c1OC", "units-symbol": "µM", "value-comparator": ">", "TGI": 100}
{"compound": "O=C(O)c1cc(N=Cc2ccccc2O)cc(C(=O)O)c1", "units-symbol": "µM", "value-comparator": ">", "TGI": 100}
{"compound": "CC(=O)OC1CC2(O)C3CCC4CC(O)CCC4(C)C3CCC2(C)C1C1=CC(=O)OC1 (stereo not given)", "units-symbol": "µM", "value-comparator": "=", "TGI": 0.27}
{"compound": "O=C1C(=O)N(c2ccc(Cl)cc2Cl)C(=O)C(=O)C1c1nc2ccccc2o1", "units-symbol": "µM", "value-comparator": ">", "TGI": 100}
{"compound": "CCCCOC(=O)NC(=O)c1cn(CCSCCOC(=O)NCCCCCCNC(=O)OCCSCCn2cc(C(=O)NC(=O)OCCCC)c(=O)[nH]c2=O)c(=O)[nH]c1=O", "units-symbol": "µM", "value-comparator": ">", "TGI": 100}
{"compound": "CO[C@@H]1/C=C(C)/C=C/[C@@H](C)/C=C(\\C)C(=O)OC(/C(C)=C/C=C(\\C)CNC(=O)[C@H](CO)NC=O)[C@@H](C)/C=C/C=C/[C@H](OC)CC/C=C(C)/C=C/C1 (stereo not given in full)", "units-symbol": "µM", "value-comparator": "=", "TGI": 0.425}
{"compound": "COc1cccc(Cc2c3cc(OC)ccc3cc[n+]2C)c1", "units-symbol": "µM", "value-comparator": ">", "TGI": 100}

###

Test system: ACHN renal
method: NCI tumour cell line growth inhibition, 48 h
Each entry below carries its recorded GI50.
property-measured: GI50

{"molecule": "C=CCC(N[C@H](CO)c1ccccc1)c1cn(C(=O)OCC)c2ccccc12 (stereo partly drawn)", "property-measured": "GI50", "value-measured": "16.1 µM"}
{"molecule": "O=C(N/N=C/c1ccccc1O)C(=O)Nc1ccc(F)cc1", "property-measured": "GI50", "value-measured": "3.02 µM"}
{"molecule": "CCOC(=O)/C=C/C(C(=O)/C=C/c1ccc(O)c(OC)c1)=C(O)\\C=C\\c1ccc(O)c(OC)c1", "property-measured": "GI50", "value-measured": "2.36 µM"}

###

In this section we review reported TGI values for a set of compounds.
Test system: HOP-92 NSCLC
method: NCI tumour cell line growth inhibition, 48 h

{"compound": "COc1ccc2c(c1)C(c1ccccc1Cl)=Nc1c(n[nH]c1C)N2", "value-comparator": ">", "TGI, µM": 25}
{"compound": "CO[C@@H]1/C=C(C)/C=C/[C@@H](C)/C=C(\\C)C(=O)OC(/C(C)=C/C=C(\\C)CNC(=O)[C@H](CO)NC=O)[C@@H](C)/C=C/C=C/[C@H](OC)CC/C=C(C)/C=C/C1 (some centres undefined)", "value-comparator": "=", "TGI, µM": 0.0852}
{"compound": "CC(C)(C)C(=O)ON1N=NC2C3CC(OCc4ccccc4)(OCc4ccccc4)C(O3)C21 (centres undefined)", "value-comparator": "=", "TGI, µM": 27.2}
{"compound": "O=c1cc(-c2ccccc2)[nH]n1-c1nc2ccccc2[nH]1", "value-comparator": "=", "TGI, µM": 47.7}
{"compound": "Cc1ccc(N2CCc3c(C)c(C#N)c4nc5ccccc5n4c32)cc1", "value-comparator": "=", "TGI, µM": 57.5}
{"compound": "O=[Se](=O)c1ccccc1.O=[Se](=O)c1ccccc1.[Cu]", "value-comparator": "=", "TGI, µM": 37.3}
{"compound": "O=[N+]([O-])c1ccc(N=Nc2c(O)c(S(=O)(=O)O)cc3cc(S(=O)(=O)O)ccc23)cc1", "value-comparator": ">", "TGI, µM": 100}
{"compound": "COc1cccc2c1C(=O)c1c(O)c3c(c(O)c1C2=O)C[C@@](O)(C(=O)CO)C[C@@H]3OC1C[C@H](N)[C@H](O)[C@H](C)O1 (some centres undefined)", "value-comparator": "=", "TGI, µM": 0.233}
{"compound": "C=C(c1ccc(C(=O)N(C)c2ccccc2N)cc1)C(C)N1C(=O)[C@H]2CCCN2C(=O)c2ccccc21 (some centres undefined)", "value-comparator": ">", "TGI, µM": 100}
{"compound": "Fc1ccc(C2SCc3nc4ccccc4n32)cc1 (centres undefined)", "value-comparator": "=", "TGI, µM": 62}
{"compound": "O=C(OCc1ccccc1)C1(N2CN(C3(C(=O)OCc4ccccc4)CCCC3)CN(C3(C(=O)OCc4ccccc4)CCCC3)C2)CCCC1", "value-comparator": ">", "TGI, µM": 10}
{"compound": "Cc1c2c[n+](C(C)C)ccc2c(C)c2c1[nH]c1ccccc12", "value-comparator": "=", "TGI, µM": 6.95}
{"compound": "Nc1c(C(=O)Nc2ccccc2)[n+]([O-])c2ccccc2[n+]1[O-]", "value-comparator": "=", "TGI, µM": 32.1}
{"compound": "O=C1CN(C(=O)c2ccccc2)Cc2[nH]c3ccccc3c21", "value-comparator": ">", "TGI, µM": 100}

###

System: SN12C renal
method: NCI tumour cell line growth inhibition, 48 h

{"molecule": "CO[C@@H]1CC(=O)C2(CC(=O)O[C@@H]2/C=C(\\C)CCC=C(C)C)C[C@@H]1O (some centres not stated)", "GI50": "0.705 µM"}
{"molecule": "O=C(Cc1cccc(OC(F)(F)F)c1)Nc1ccc(CCCCc2nnc(NC(=O)Cc3ccccn3)s2)nn1", "GI50": "18.5 µM"}
{"molecule": "O=C(O)c1cc2cc(OCc3ccccc3)c(OCc3ccccc3)cc2[nH]1", "GI50": "33.1 µM"}
{"molecule": "COc1cc(-c2nc3sc4c(c3c(=O)[nH]2)CCCCCC4)cc(OC)c1OC", "GI50": "2.14 µM"}
{"molecule": "C#CC(F)(F)[C@]1(O)CC[C@H]2[C@@H]3CCC4=CC(=O)CCC4=C3[C@@H](c3ccc(C(C)=O)cc3)C[C@@]21C", "GI50": "25.1 µM"}
{"molecule": "C=CCC(N[C@H](CO)c1ccccc1)c1cn(C(=O)OCC)c2ccccc12 (some centres not stated)", "GI50": "18.3 µM"}
{"molecule": "COc1ccc(-n2c3c(c4c(CN5CCOCC5)c(O)ccc42)CCc2ccccc2C3=O)cc1", "GI50": "43.3 µM"}

###

System: TK-10 renal
method: NCI tumour cell line growth inhibition, 48 h
property-measured: GI50

{"compound": "COc1cccc2c1C(=O)c1c(O)c3c(c(O)c1C2=O)C[C@@](O)(C(=O)CO)C[C@@H]3OC1C[C@H](N)[C@H](O)[C@H](C)O1 (stereo not given in full)", "assay-system": "TK-10 renal", "value-measured": "0.177 µM"}
{"compound": "Cn1cc(-c2cnc3ccc4ccc(CS(=O)(=O)NCc5ccccn5)cc4c(=O)c3c2)cn1", "assay-system": "TK-10 renal", "value-measured": "21.6 µM"}
{"compound": "COc1ccccc1C#Cc1ccccc1C#CCCCCCC#Cc1ccccc1C#Cc1ccccc1OC", "assay-system": "TK-10 renal", "value-measured": "> 100 µM"}
{"compound": "N#C[S-].[Nd+3].c1ccc(-c2ccccn2)nc1.c1ccc(-c2ccccn2)nc1.c1ccc(-c2ccccn2)nc1", "assay-system": "TK-10 renal", "value-measured": "5.05 µM"}
{"compound": "Cc1cc(C)c(O)c(CN(C)Cc2cc(Cl)cc(Cl)c2O)c1", "assay-system": "TK-10 renal", "value-measured": "4.95 µM"}
{"compound": "C=CC1CC12C(=O)C1OC2(C)C2C(=O)c3c(O)ccc(O)c3C(=O)C12 (stereo not given)", "assay-system": "TK-10 renal", "value-measured": "2.96 µM"}
{"compound": "CCCCCCCCCCCCSC(=N)N", "assay-system": "TK-10 renal", "value-measured": "16.4 µM"}
{"compound": "c1cn2cc(-c3ccc4cn[nH]c4c3)nc(Nc3ccc(N4CCOCC4)cc3)c2n1", "assay-system": "TK-10 renal", "value-measured": "17.3 µM"}
{"compound": "CSc1ccc2c3c(n(C[C@H](O)CO)c(=O)c2c1)-c1ccccc1C3=O", "assay-system": "TK-10 renal", "value-measured": "4.76 µM"}
{"compound": "COc1ccc2c(c1)C(=O)/C(=C/c1ncc([N+](=O)[O-])n1C)O2", "assay-system": "TK-10 renal", "value-measured": "1.38 µM"}
